# System: KM12 colon
# TEST_METHOD_NOTES: NCI tumour cell line growth inhibition, 48 h
Where a SMILES comes first, the peptide text is derived from it. [ ]: non-standard residue; d: D form. ξ: configuration not given here. ξLac(3-iPr) = CC(C)CC(O)C(=O)O; NMeV = CN[CH](C(=O)O)C(C)C; NMeA = CN[CH](C)C(=O)O; βAla = NCCC(=O)O
Recorded TGI by entry
READOUT_NAME: TGI

1. CCN(CC)C1C(=O)NC1C#Cc1ccccc1 (centres undefined) ... > 100 µM
2. O=C1/C(=C/c2ccc(Oc3ccccc3)cc2)N=C(c2ccccc2)N1c1ccc(S(=O)(=O)Nc2nccs2)cc1 ... 53.7 µM
3. C=C1C(OC(=O)/C=C/c2ccccc2)CC(OC(C)=O)C2(C)C1CC1CC(OC(C)=O)C(C)=C(C(OC(C)=O)C2OC(C)=O)C1(C)C (centres undefined) ... > 100 µM
4. O=C(NNC(=S)NCc1ccccc1)c1csc(NC(=S)NC2CCCCC2)n1 ... > 100 µM
5. CSC1=NNC(SC)=NN1 ... 0.376 µM
6. COc1ccc(N=NC(=Nc2ccc(Cl)cc2)c2ccc(N(CCC#N)CCC#N)cc2)cc1 ... > 100 µM
7. O=C1C=CC(=O)c2c(O)c(Br)c(Br)c(O)c21 ... 16.7 µM
8. CCC(C)C1NC(=O)C2CCCN2C(=O)C(CC(C)C)OC(=O)CCNC(=O)C(C)N(C)C(=O)C(C(C)C)N(C)C1=O (centres undefined) (cyclo([ξLac(3-iPr)]PI[NMeV][NMeA][βAla]); configuration not given here) ... 45.5 µM
9. O=C1OC(C2(O)OC(=O)c3ccccc32)c2ccccc21 (centres undefined) ... > 100 µM

Source listed as PubChem BioAssay (NCI).
